Source: ChEMBL document CHEMBL4304792

Tested on: Staphylococcus aureus
Experiment Description: Potentiation of oxacillin induced antibacterial activity against Staphylococcus aureus NRS70 assessed as oxacillin MIC at 8 uM measured after 16 to 20 hrs in presence of 2% NaCl by microdilution broth method (reference value: 64 mg/L)
Assay type: functional
Assay Metric: log10 of MIC (log10 of the value in µg/mL)
Plainly stated, the numbers are log10 of MIC given in µg/mL.

Sample records with log10 of MIC:
Smiles Structure	Data Value
CS(=O)(=O)/C(C#N)=C/c1cc(Cc2ccc(Cl)c(Cl)c2)ccc1F	0.90
CS(=O)(=O)/C(C#N)=C/c1cc(-c2ccc(Cl)c(Cl)c2)ccc1F	1.20
N#C/C(=C\c1cc(Cc2ccc(Cl)c(Cl)c2)ccc1F)S(=O)(=O)c1ccccn1	0.60
CS(=O)(=O)/C(C#N)=C/c1cc(Cc2ccc(Cl)c(Cl)c2)ccc1OC(F)(F)F	-0.60

Field: next molecule
Request: Which log10 of MIC reading was recorded for the molecule CS(=O)(=O)/C(C#N)=C/c1c(F)ccc(Cc2ccc(Cl)c(Cl)c2)c1F ?
Response: 1.81
